Read-out: Cytochrome P450 3A4 (Homo sapiens) (UniProt P08684)
Sequence (P08684 whole entry, looked up): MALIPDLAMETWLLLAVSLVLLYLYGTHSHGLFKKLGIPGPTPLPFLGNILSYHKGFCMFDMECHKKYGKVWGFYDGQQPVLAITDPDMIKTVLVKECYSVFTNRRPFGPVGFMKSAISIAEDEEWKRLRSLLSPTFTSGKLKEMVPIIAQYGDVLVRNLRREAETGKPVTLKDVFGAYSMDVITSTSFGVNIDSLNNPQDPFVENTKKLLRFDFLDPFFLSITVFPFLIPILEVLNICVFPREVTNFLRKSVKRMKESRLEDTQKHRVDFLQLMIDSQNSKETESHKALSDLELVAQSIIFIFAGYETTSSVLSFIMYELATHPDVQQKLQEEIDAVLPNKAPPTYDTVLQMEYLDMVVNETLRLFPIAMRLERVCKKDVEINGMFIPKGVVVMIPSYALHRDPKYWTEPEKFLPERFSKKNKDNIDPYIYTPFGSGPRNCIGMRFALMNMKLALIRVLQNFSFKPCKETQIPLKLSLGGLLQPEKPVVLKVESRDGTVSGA
Experiment: LTEA_HepaRG_CYP3A4: Life Technologies and Expression Analysis (LTEA) Assay for CYP3A4 using HepaRG (AID 2283487)
Conditions: mRNA level, 48 h; actives raise or lower the signal
Activity calls are given as the source filed them. How the source made its calls: active means hit-call score of the fitted dose curve at least 0.9, where 1 is the maximum; inactive means score below 0.9.
Select the correct class. Options are TRUE (active), FALSE (inactive) and nothing else.

**Q:** Name the outcome recorded for COc1ccc(-c2ccccc2)cc1NNC(=O)OC(C)C in the assay.
**A:** FALSE

**Q:** Assay outcome for CC(C)(C)C(=O)C(Oc1ccc(Cl)cc1)n1cncn1 (configuration not stated) : what was it?
**A:** TRUE

**Q:** Hello, I am checking results. What call was entered for CS(=O)(=O)c1ccc(C(=O)C2C(=O)CCCC2=O)c([N+](=O)[O-])c1 ?
**A:** FALSE

**Q:** Fill in: this test's call for Cc1c(COC(=O)[C@@H]2[C@H](/C=C(\Cl)C(F)(F)F)C2(C)C)cccc1-c1ccccc1 is ___
**A:** TRUE

**Q:** Can you look up the reported call for CCN(CC)c1nc(C)cc(OP(=S)(OC)OC)n1 for me?
**A:** TRUE

**Q:** What did this assay record as the result for C=C(C)CN(CC)c1c([N+](=O)[O-])cc(C(F)(F)F)cc1[N+](=O)[O-] ?
**A:** TRUE

**Q:** Would you mind telling me which call this test gave CCSC(=O)N1CCCCCC1 ?
**A:** TRUE

**Q:** Lab log entry: CNC(=O)N(C)c1nnc(C(C)(C)C)s1 — outcome as called in the assay?
**A:** FALSE

**Q:** Outcome? CC(C)C1(C)N=C(c2ncccc2C(=O)O)NC1=O (configuration not stated)
**A:** FALSE

**Q:** I'd appreciate the recorded outcome for CN/C(=N\[N+](=O)[O-])NCc1cnc(Cl)s1 from this test.
**A:** FALSE

**Q:** Any idea what this test logged for Nc1c(Cl)c(Cl)nc(C(=O)O)c1Cl ?
**A:** FALSE

**Q:** For COP(=O)(OC)O/C(C)=C/C(=O)N(C)C , what call appears in the results of this test?
**A:** FALSE
